Reference for the values: patent US20210238192A1

# Target system: Human VAP-1 (Homo sapiens)
# Sequence (Q16853 1-763): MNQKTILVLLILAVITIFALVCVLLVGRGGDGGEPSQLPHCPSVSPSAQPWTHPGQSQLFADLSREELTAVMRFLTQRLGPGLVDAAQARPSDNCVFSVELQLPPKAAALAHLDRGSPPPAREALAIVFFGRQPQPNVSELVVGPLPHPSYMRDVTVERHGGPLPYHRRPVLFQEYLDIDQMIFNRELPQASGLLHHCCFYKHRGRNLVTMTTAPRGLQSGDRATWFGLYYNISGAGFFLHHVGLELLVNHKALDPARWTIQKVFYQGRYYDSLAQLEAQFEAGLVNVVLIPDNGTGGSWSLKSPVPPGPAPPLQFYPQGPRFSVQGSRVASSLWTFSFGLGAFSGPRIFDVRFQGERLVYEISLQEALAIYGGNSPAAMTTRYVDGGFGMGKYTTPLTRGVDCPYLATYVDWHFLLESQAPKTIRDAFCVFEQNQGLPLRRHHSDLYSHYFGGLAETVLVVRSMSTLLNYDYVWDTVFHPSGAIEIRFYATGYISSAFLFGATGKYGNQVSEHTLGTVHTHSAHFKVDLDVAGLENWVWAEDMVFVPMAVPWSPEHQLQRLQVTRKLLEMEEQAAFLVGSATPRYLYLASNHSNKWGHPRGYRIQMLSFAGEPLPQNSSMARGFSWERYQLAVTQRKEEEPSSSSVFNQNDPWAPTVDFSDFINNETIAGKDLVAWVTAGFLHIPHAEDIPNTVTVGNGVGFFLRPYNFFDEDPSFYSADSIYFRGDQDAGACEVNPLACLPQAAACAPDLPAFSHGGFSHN
# Experiment description: VAP-1 inhibition assay (Amplex Red continuous fluorescence assay)
# Assay type: biochemical
# Assay setup: 30 min pre-incubation at 37° C.; substrate benzylamine; read-out: Human VAP-1 IC50
Structures can show the parent of a compound that is named as a salt.
Reported endpoint: IC50

Observe how each entry below is paired with its result.
> print(dat)
                                   compound               target.system  reported.endpoint  endpoint.result
1  CC(C)(C)NC(=O)c1cn(CC(=CF)CN)c2ccccc12 [Compound 70]  Human VAP-1 (Homo sapiens)               IC50           < 3 µM
2  NC/C(=C/F)COc1ccc(-c2ncon2)cc1 [Compound 44, HYDROCHLORIDE]  Human VAP-1 (Homo sapiens)               IC50           < 3 µM
3  NC/C(=C/F)COc1ccc(-c2nccs2)cc1 [Compound 20, Hydrochloride]  Human VAP-1 (Homo sapiens)               IC50           < 3 µM
4  CCC(=O)Nc1ccc(OC/C(=C/F)CN)cc1 [Compound 82]  Human VAP-1 (Homo sapiens)               IC50           < 3 µM
5  NC/C(=C\F)Cn1ccc2ccccc21 [Compound 15, hydrochloride]  Human VAP-1 (Homo sapiens)               IC50           < 3 µM

Param item = Cn1nccc1-c1ccc(OC/C(=C/F)CN)cc1 [Compound 48, hydrochloride] ; retrieve measured IC50. < 3 µM

And Cn1cnc(-c2ccc(OC/C(=C/F)CN)cc2)c1 [Compound 39] ? < 3 µM

And NC/C(=C/F)COc1ccc(-c2nc3ccccc3[nH]2)cc1 [Compound 11, hydrochloride] ? < 3 µM

And CCN(CC)C(=O)Nc1ccc(OC/C(=C/F)CN)cc1 [Compound 24, hydrochloride] ? < 3 µM
